Measured values drawn from PubChem BioAssay (NCI) for this set.

System: LOX IMVI melanoma
Assay: NCI tumour cell line growth inhibition, 48 h
I'd be grateful if you could share measured TGI for these entries.

Case CC(C)/C=C1\CCC(CN2CCOCC2)C1=O (stereo not drawn) , LOX IMVI melanoma, TGI recorded as 53.6 µM

Measured on LOX IMVI melanoma, `Cn1cccc1-c1ccc(-c2ccc(CO)[se]2)[se]1` has a documented TGI of > 70.6 µM

So the reported TGI for `COc1ccc([C@H](CC(=O)O)N2CCN(CCCc3ccc4c(n3)NCCC4)C2=O)cn1` , on LOX IMVI melanoma, turned out to be 4.23 µM

The recorded TGI with LOX IMVI melanoma for Nc1cc2c(c3ccccc13)C(CCl)CN2C(=O)c1cc2cc(NC(=O)Nc3ccc4[nH]c(C(=O)N5CC(CCl)c6c5cc(N)c5ccccc65)cc4c3)ccc2[nH]1 (stereo not drawn) was 12 µM

Item: `NS(=O)(=O)c1nc(S(=O)(=O)O)c2[nH]cnc2n1` | System: LOX IMVI melanoma | TGI: > 100 µM

With LOX IMVI melanoma as the test system, `C(/C=N/NC1=NCCCCN1)=N\NC1=NCCCCN1` showed TGI of > 100 µM

Summary: `N#CC(CCN1CCC(Nc2ccccc2)(c2nnnn2C2CCCCC2)CC1)(c1ccccc1)c1ccccc1` , LOX IMVI melanoma, TGI = > 100 µM

Item CC1CC[C@@]2(OC1)O[C@H]1[C@H](O)[C@H]3[C@@H]4CC[C@H]5C[C@@H](OC6OC(CO)C(OC7OC(CO)C(O)C(OC8OCC(O)C(O)C8O)C7OC7OC(CO)C(O)C(O)C7OC7OC(CO)C(O)C(O)C7O)C(O)C6O)[C@H](O)C[C@]5(C)[C@H]4CC[C@]3(C)[C@H]1[C@@H]2C (stereo partly drawn) ; assay system LOX IMVI melanoma; TGI reported as > 10 µM

Entry `O=C(/C(=C(/O)c1ccccc1)c1nc2ccccc2sc1=O)c1ccccc1` , tested on LOX IMVI melanoma, has a reported TGI of > 100 µM

# `C#C[C@]1(O)CC[C@H]2[C@@H]3CC=C4c5sc(Nc6cc(F)ccc6F)nc5CC[C@]4(C)[C@H]3CC[C@@]21C` with LOX IMVI melanoma: TGI is 2.87 µM

Response field TGI (LOX IMVI melanoma) for item `[2H]C([2H])([2H])NC(=O)c1nnc(NC(=O)C2CC2)cc1Nc1cccc(-c2ncn(C)n2)c1OC` : > 100 µM

For the compound `COC(C/C(=C/CO[Si](C(C)C)(C(C)C)C(C)C)C(=O)N(COCC[Si](C)(C)C)c1ccccc1I)OC` , the measured TGI on LOX IMVI melanoma was 37.8 µM

Tested on LOX IMVI melanoma: C/C=C(\C)C(=O)OC1CC(OC(C)=O)C2(C(=O)OC)COC3C2C1(C)C1C2(C(=O)OC)OCC1(C3O)C1(O)C3CC(C4(O)C=COC4O3)C1(C)O2 (stereo not drawn) . Observed TGI: > 100 µM

Lab note: compound `CC(C)(C)OC(=O)N/C(C=O)=C\C1CCCCC1` tested on LOX IMVI melanoma; recorded TGI was 29.9 µM

Result for `COc1c(C(C)=O)c(OCCCCOc2c(C(C)=O)c(OC)c3ccoc3c2OC)c(OC)c2occc12` , tested on LOX IMVI melanoma, TGI: > 100 µM

Item: `CSC(SC)=C(C#N)C(=O)Nc1cccc(Cl)c1` | System: LOX IMVI melanoma | TGI: > 100 µM

Reading of TGI for CC(=O)n1cc(C2CC23N=C(c2ccccc2)OC3=O)c2ccccc21 (stereo not drawn) with LOX IMVI melanoma: 35.8 µM

Form field, TGI with LOX IMVI melanoma, item CC1C(NNC(N)=O)Oc2cc3c(cc2C1c1ccccc1O)OCO3 (stereo not drawn) : > 100 µM

TGI of `CCc1cccc2c3c([nH]c12)-c1ccccc1NC(=O)C3` , assay on LOX IMVI melanoma, is > 100 µM

Lab entry: LOX IMVI melanoma assay, compound `CC[C@@]1(O)C(=O)OCc2c1cc1n(c2=O)Cc2c-1nc1ccc(O)cc1c2[Si](C)(C)C(C)(C)C` , TGI = 0.163 µM

The compound CCOC(=O)C1CC(C(=O)c2ccccc2)N2c3ccccc3-c3ccccc3C12 (stereo not drawn) , tested on LOX IMVI melanoma, showed TGI of > 100 µM

Log: LOX IMVI melanoma, compound `COc1ccc(-n2c(=O)c3[nH]c(=S)[nH]c3n(-c3ccc(OC)cc3)c2=S)cc1` , TGI = > 100 µM

Entry `C[N+]1=c2c3cccc4cccc(c(=O)n2CC1)c43` under LOX IMVI melanoma had TGI of 17.6 µM

Lab note: compound `C#CC(O)(c1nc2ccccc2s1)c1nc2ccccc2s1` tested on LOX IMVI melanoma; recorded TGI was 35.7 µM

For `COC(=O)c1cc(-c2ccccc2)[nH]c1N/N=C/c1c(Cl)cccc1Cl` on LOX IMVI melanoma, measured TGI was 17.7 µM

Query `COc1cc(CNc2nc3c(N)cc(C(F)(F)F)cc3nc2-c2ccccc2)cc(OC)c1OC` on LOX IMVI melanoma; TGI returned: > 100 µM

Summary line: `C/C(CC(=O)Nc1cccc(Cl)c1C)=N\NC(N)=S` , LOX IMVI melanoma, reported TGI = > 100 µM

Given the compound `C/C(=C\c1ccn(-c2ccccc2N)n1)[C@@H]1C[C@@H]2O[C@]2(C)CCC[C@H](C)[C@H](O)[C@@H](C)C(=O)C(C)(C)[C@@H](O)CC(=O)O1` and test system LOX IMVI melanoma, the measured TGI is > 50 µM
